Tested on: SKOV3 human ovarian carcinoma cells not infected (NR−)
protocol.summary: cells
Type: cell-based
test.conditions: read-out: IC50 in SKOV3 NR−
property.measured: IC50 (µM)
Provide only the numeric value, understood in µM.

Quote IC50 reported for O=[N+]([O-])c1ccc([C@H]2CCO[P@@](=O)(N(CCCl)CCCl)N2)cc1 [trans-13b] please. 820

----------
tested.target: UniProtKB P38489
Sequence (P38489 whole entry): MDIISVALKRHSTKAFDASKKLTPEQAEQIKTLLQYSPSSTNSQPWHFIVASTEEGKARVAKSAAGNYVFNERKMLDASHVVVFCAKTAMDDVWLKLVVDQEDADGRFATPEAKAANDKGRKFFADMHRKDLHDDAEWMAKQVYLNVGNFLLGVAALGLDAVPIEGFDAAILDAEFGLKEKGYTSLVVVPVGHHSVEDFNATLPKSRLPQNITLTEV
test.conditions: pH 7
Entries and their NR assay t1/2 (half-life of reduction by E. coli nitroreductase)
Hi, when you answer, please include the unit after the number. Thanks!

# count of solved cases: 5
INSERT INTO assay_data (compound, tested_target, reported_measurement) VALUES
  ('O=[N+]([O-])c1ccc([C@H]2CCO[P@@](=O)(N(CCCl)CCCl)N2)cc1 [trans-13b]', 'UniProtKB P38489', '2.9 min'),
  ('O=[N+]([O-])c1ccc([C@H]2CCN[P@@](=O)(N(CCCl)CCCl)N2)cc1 [trans-13d]', 'UniProtKB P38489', '4.2 min'),
  ('O=[N+]([O-])c1ccc([C@@H]2CCN[P@](=O)(N(CCCl)CCCl)O2)cc1 [cis-13c]', 'UniProtKB P38489', '5.2 min'),
  ('O=[N+]([O-])c1ccc([C@@H]2CCN[P@](=O)(N(CCCl)CCCl)O2)cc1 [trans-13c]', 'UniProtKB P38489', '3.9 min'),
  ('O=[N+]([O-])c1ccc([C@H]2CCO[P@@](=O)(N(CCCl)CCCl)N2)cc1 [cis-13b]', 'UniProtKB P38489', '11.9 min');

Answer with the recorded NR assay t1/2 (half-life of reduction by E. coli nitroreductase) for the compound listed here: O=[N+]([O-])c1ccc([C@H]2CCN[P@@](=O)(N(CCCl)CCCl)N2)cc1 [cis-13d] 6.4 min
